System: Fibroblast
Test: Incucyte cell viability with human fibroblast; further: unitless GR value; below 1 slowed growth and below 0 cell loss
Format: toxicity, cell-based
Conditions: 24 h, 10 µM, compound concentration 10 uM, replicate number 2
Peptide text beside a SMILES is read from it.
Class True: Growth Rate at least -0.07. Class False: Growth Rate below -0.07.

Field: example entries. Status: answers known.
INSERT INTO assay_data (compound, test_target, class_label) VALUES
  ('COc1nc(Nc2cc(S(C)(=O)=O)ccc2N[C@@H](c2cccc3c2OC(F)(F)O3)c2ncccc2Cl)nc(N2CCNCC2)n1', 'Fibroblast', 'False'),
  ('CS(=O)(=O)c1ccc(-c2cnc(NCc3ccco3)n3cnnc23)cc1', 'Fibroblast', 'True'),
  ('COC[C@H](NC(=O)c1ccn(S(C)(=O)=O)c1)C(=O)Nc1nc(-c2cccc(-c3ccn(C)n3)c2)cs1', 'Fibroblast', 'True'),
  ('O=C(O)/C(S)=C/c1ccc(I)cc1', 'Fibroblast', 'True'),
  ('Cc1cc2cc(NS(=O)(=O)c3ccc(C#N)cc3)ccc2n(C)c1=O', 'Fibroblast', 'True');

Query :: Is Growth Rate for CCCOc1ccc(CCc2nc3cc(-c4c(C)noc4C)ccc3n2CCN2CCOCC2)cc1 at or above -0.07?
Result :: True

Query :: How about CC(C)c1cnc(CSc2cnc(NC(=O)C3CCNCC3)s2)o1 ?
Result :: False

Query :: CC[C@H](C)[C@H](NC(=O)[C@H](CCC(=O)O)NC(=O)[C@@H](NC(C)=O)C(C)C)C(=O)N[C@H](C=O)CC(=O)O.O=C(O)C(F)(F)F (Ac-VEID-aldehyde) ?
Result :: True

----------
Recorded measurements of Growth Rate, one per entry
Tested on: U2OS
Assay: Incucyte cell viability with U2OS; further: unitless GR value; below 1 slowed growth and below 0 cell loss
Type: toxicity, cell-based
Settings: human, 24 h, 10 µM, compound concentration 10 uM, replicate number 1
Lab note: jot the number down without any unit.

INSERT INTO assay_data (structure_smiles, test_target, observable, experimental_result) VALUES
  ('CCCOc1cc(OCCCCN(C)C)cc(Oc2cc3c(cc2NS(=O)(=O)c2ccc(OC)c(OC)c2)n(C)c(=O)n3C)c1.O=C(O)C(F)(F)F', 'U2OS', 'Growth Rate', 0.87),
  ('C[C@H](NC(=O)c1cn(C2(C#N)CC2)cn1)C(=O)Nc1nc(-c2cccc(-c3ccn(C)n3)c2)cs1', 'U2OS', 'Growth Rate', 0.33);

Query :: Quick one: Growth Rate for Cc1cc(OCc2nnc(SC3CCCC3)n2-c2cccnc2)ccc1-c1ccc(S(C)(=O)=O)cc1 ?
Result :: -0.5

Query :: Quick one: O=C(O)/C(S)=C/c1ccc(I)cc1
Result :: 1

Query :: Proceed to Cl.Cl.Nc1ncnc2c1ncn2[C@@H]1O[C@H](C(=O)N2CCN(CC(=O)Nc3cccc4c3CNC4=O)CC2)[C@@H](O)[C@H]1O
Result :: 1

Query :: Now consider CCN(c1cc(C#CCN2CCOCC2)cc(C(=O)NCc2c(C)cc(C)[nH]c2=O)c1C)[C@H]1CC[C@H](N(C)CCOC)CC1 .
Result :: 1

Query :: Check Cc1cc(-c2ccccc2)cc(C(=O)NNS(=O)(=O)c2ccccc2)c1F too.
Result :: 0.87

Query :: Subsequent entry: CC(C)C(=O)SCCCCCCC(=O)Nc1nc(-c2ccccc2)cs1
Result :: -0.42

----------
Test system: HEK-293T
Assay: Incucyte cell viability with HEK293T; further: unitless GR value; below 1 slowed growth and below 0 cell loss
Format: toxicity, cell-based
Details: human, 24 h, 10 µM, compound concentration 10 uM, replicate number 2
OBSERVABLE: Growth Rate
# answer = number (no unit)

INSERT INTO measurements (compound, observable, experimental_result) VALUES
  ('COc1cccc(OC)c1S(=O)(=O)Nc1noc2cc(Cn3cccn3)cc(OC)c12', 'Growth Rate', 0.55),
  ('O=C(NO)c1ccc(CN2CCCc3cc(Cl)ccc32)cc1', 'Growth Rate', 0.85),
  ('COc1cc(Nc2ncc(F)c(Nc3ccc4c(n3)NC(=O)C(C)(C)O4)n2)cc(OC)c1OC [R-406]', 'Growth Rate', 0.27),
  ('CC(=O)OCCN1C(=O)c2c(C)nc3ccc(S(=O)(=O)N4CCOCC4)cc3c2C1=O', 'Growth Rate', 1);

Query :: API: value(readout=Growth Rate, system=HEK-293T) for record C[C@H]1CCCN1Cc1nc2cc(NC(=O)c3ccc4c(cnn4C)c3)ccc2[nH]1
Result :: 0.49

----------
System: Fibroblast
Assay: Incucyte cell viability with human fibroblast; further: unitless GR value; below 1 slowed growth and below 0 cell loss
Type: toxicity, cell-based
Conditions: 24 h, 10 µM, compound concentration 10 uM, replicate number 1
Square brackets hold non-standard residues; d marks the D form. Peptide text beside a SMILES is read from it. * marks the point of attachment. Nle = CCCC[C@H](N)C(=O)O; Cbz = O=C(OCc1ccccc1)*; Boc = CC(C)(C)OC(=O)*
OBSERVABLE: Growth Rate
Please give the numeric answer without any surrounding text.

Example molecules with recorded Growth Rate:
INSERT INTO measurements (molecule, observable, experimental_result) VALUES
  ('CCCC[C@@H](C=O)NC(=O)[C@H](CC(C)C)NC(=O)[C@H](CC(C)C)NC(C)=O (Ac-Leu-Leu-[Nle]-aldehyde)', 'Growth Rate', 0.53),
  ('CSCC[C@H](NC(=O)[C@H](CC(=O)O)NC(C)=O)C(=O)N[C@@H](CCC(N)=O)C(=O)N[C@H](C=O)CC(=O)O.O=C(O)C(F)(F)F (Ac-DMQD-aldehyde)', 'Growth Rate', 0.25),
  ('COCCOCCn1nc2c(c1C)-c1c(Cl)ccc3c1c(C)c(C(=O)O)n3CCCOc1cc(cc3c(F)c(Cl)ccc13)CCc1cc(nn1C)CSC2', 'Growth Rate', -0.35),
  ('CC/C(=C(/c1ccc(/C=C/C(=O)O)cc1)c1ccc2[nH]ncc2c1)c1ccc(F)cc1Cl', 'Growth Rate', 1),
  ('CCNC(=O)NCCSC[C@H]1O[C@@H](n2cnc3c(N)ncnc32)[C@H](O)[C@@H]1O', 'Growth Rate', 0.65),
  ('OC1CN=C2c3ccn([C@@H]4O[C@H]([C@H](O)c5ccc(Cl)cc5)[C@@H](O)[C@H]4O)c3N=CN21 (some centres undefined)', 'Growth Rate', 1),
  ('CC(C)[C@H](NC(=O)[C@H](CCC(=O)O)NC(=O)[C@H](C)NC(=O)OC(C)(C)C)C(=O)N[C@H](C=O)CC(=O)O.O=C(O)C(F)(F)F (Boc-AEVD-aldehyde)', 'Growth Rate', 0.24),
  ('Cc1cc(-c2ccc3nc(C4CCOCC4)n(CCOC(F)(F)F)c3c2)cn(C)c1=O', 'Growth Rate', 0.36),
  ('CCC(NC(=O)C(CC(C)C)NC(=O)OCc1ccccc1)C(=O)C(=O)NCCCN1CCOCC1.O=C(O)C(F)(F)F (centres undefined)', 'Growth Rate', 1),
  ('COc1ccc(N(C(=O)Oc2c(C)cccc2C)c2ccnc(Nc3ccc(N4CCN(C)CC4)cc3)n2)c(OC)c1', 'Growth Rate', 0.52);

Query :: For the molecule shown here, CC(=O)N[C@@H](Cc1ccc(O)cc1)C(=O)N[C@H](C(=O)N[C@@H](C)C(=O)N[C@@H](CC(=O)O)C(=O)COC(=O)c1c(C)cccc1C)C(C)C , give the reported Growth Rate.
Result :: 0.47

Query :: Now the molecule O=CC1CCCN1C(=O)C1CCCN1C(=O)OCc1ccccc1 (stereo not drawn) (Cbz-Pro-Pro-aldehyde; configuration not given here)
Result :: 0.22

Query :: Now this one: O=C(Nc1ccc2[nH]nc(-c3ccncc3)c2c1)[C@@H]1CCN(CC(=O)N2CCN(c3ccc(-c4ncccn4)cc3)CC2)C1
Result :: 1

Query :: Next molecule: CC(=O)N1CCC(Nc2cc(C(=O)NC[C@H](O)CN3CCc4ccccc4C3)ncn2)CC1
Result :: 1

----------
Tested on: Fibroblast
Experiment: Incucyte cell viability with human fibroblast; further: unitless GR value; below 1 slowed growth and below 0 cell loss
Type: toxicity, cell-based
Conditions: 24 h, 10 µM, compound concentration 10 uM, replicate number 2
Peptide text beside a SMILES is read from it.
Catalogue of compounds with associated Growth Rate
Enter the number alone.

Query :: Record request: Growth Rate value, item O=C(NCCCn1ccnc1)c1cc2nc(-c3ccccc3)cc(-c3ccccc3)n2n1
Result :: 1

Query :: Now consider CC/C(=C(/CC)c1ccc(O)cc1)c1ccc(O)cc1 [DIETHYLSTILBESTROL] and answer again.
Result :: 0.22

Query :: Try the compound N=C(N)N/N=C/c1cccc(Cl)c1Cl
Result :: 0.86

Query :: Also O=C(O)/C(S)=C/c1c[nH]c2ccc(F)cc12 ?
Result :: 1

Query :: Follow-up item: CC(=O)N[C@@H](CC(C)C)C(=O)N[C@@H](CCC(=O)O)C(=O)N[C@@H](Cc1cnc[nH]1)C(=O)N[C@H](C=O)CC(=O)O.O=C(O)C(F)(F)F (Ac-LEHD-aldehyde)
Result :: 0.49

Query :: Note, next up: O=C1Cc2cc(C(=O)N[C@@H]3C[C@H]4CC[C@@H](C3)N4S(=O)(=O)CC3CCN(CCCC(F)(F)F)CC3)c(Cl)cc2N1
Result :: 0.61

Query :: Would you mind doing CC(=O)N[C@H](C(=O)N[C@@H](CC(=O)O)C(=O)N[C@H](C(=O)N[C@@H](C)C(=O)N[C@H](C=O)CC(=O)O)C(C)C)C(C)C (Ac-VDVAD-aldehyde) as well?
Result :: 1

Query :: Also check Nc1ncnc2c1ncn2[C@@H]1O[C@H](C[C@@H](N)CC[C@H](N)C(=O)O)[C@@H](O)[C@H]1O [SINEFUNGIN]
Result :: -0.28

Values from ChEMBL document CHEMBL5724709
